SYSTEM: human recombinant ENPP1 (Homo sapiens, UniProt P22413)
ASSAY EXPLANATION: ENPP1 assay with 2′,3′-cGAMP substrate (AMP-Glo)
Type: biochemical
COND: read-out: ENPP1 inhibition Ki, cGAMP Substrate
READOUT KIND: Ki (nM)
Express the result in nM but write the number alone.

Please provide the recorded Ki for `COc1cc2ccc(=O)n(Cc3ccc(NS(N)(=O)=O)cc3)c2cc1OC` , tested on human recombinant ENPP1 (Homo sapiens, UniProt P22413).
234

* * *

SYSTEM: human recombinant ENPP1 (Homo sapiens, UniProt P22413)
Sequence (P22413 1-925): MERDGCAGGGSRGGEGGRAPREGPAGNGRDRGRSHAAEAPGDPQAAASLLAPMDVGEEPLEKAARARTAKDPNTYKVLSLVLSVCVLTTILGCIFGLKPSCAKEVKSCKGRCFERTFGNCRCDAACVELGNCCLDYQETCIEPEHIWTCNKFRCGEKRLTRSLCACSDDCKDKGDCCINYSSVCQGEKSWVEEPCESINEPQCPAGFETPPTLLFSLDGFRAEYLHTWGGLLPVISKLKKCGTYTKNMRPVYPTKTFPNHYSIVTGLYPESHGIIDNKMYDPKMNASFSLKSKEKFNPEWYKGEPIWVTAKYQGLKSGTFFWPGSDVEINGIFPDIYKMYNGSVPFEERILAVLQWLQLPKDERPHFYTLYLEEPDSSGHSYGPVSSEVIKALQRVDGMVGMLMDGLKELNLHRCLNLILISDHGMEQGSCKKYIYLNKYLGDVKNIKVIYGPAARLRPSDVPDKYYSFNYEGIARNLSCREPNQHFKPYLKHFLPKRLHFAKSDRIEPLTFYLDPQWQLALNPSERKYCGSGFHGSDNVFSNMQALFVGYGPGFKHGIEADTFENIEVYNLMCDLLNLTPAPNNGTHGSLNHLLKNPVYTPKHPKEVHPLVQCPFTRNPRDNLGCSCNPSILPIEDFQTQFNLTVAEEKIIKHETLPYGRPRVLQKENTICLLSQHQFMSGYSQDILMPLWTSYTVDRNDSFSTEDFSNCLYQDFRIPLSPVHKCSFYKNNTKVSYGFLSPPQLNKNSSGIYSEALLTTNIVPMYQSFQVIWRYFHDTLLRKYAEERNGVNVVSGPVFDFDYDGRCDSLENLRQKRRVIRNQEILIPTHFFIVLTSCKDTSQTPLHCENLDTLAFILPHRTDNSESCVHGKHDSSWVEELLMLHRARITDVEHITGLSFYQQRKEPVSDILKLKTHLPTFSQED
ASSAY EXPLANATION: ENPP1 assay with AMP-pNP substrate (ATP analog), absorbance at 405 nm
Assay type: biochemical
COND: read-out: ENPP1 inhibition Ki, AMP-pNP Substrate
READOUT KIND: Ki

Ki lookup needed for COc1cc2ccc(=O)n(Cc3ccc(NS(N)(=O)=O)cc3)c2cc1OC [Compound 10] , thanks.
> 30 µM
